Tested on: IGROV-1
Run description: NCI tumour cell line growth inhibition, 48 h
Activity calls are given as the source filed them. Rule as the data show it: active = GI50 up to about 1.1 µM and inactive = higher. Residues, ends and D or L forms follow the SMILES beside them.
Measured attribute: GI50

Determine from records and report GI50 for "c1ccc2c(c1)CCc1c-2n(CCN2CCCCC2)c2ccccc12"
11.4 µM (inactive)

Write down GI50 measured for item "COc1cccc(Nc2n[nH]c(NS(=O)(=O)c3cc(C)c(Cl)cc3S)n2)c1"
> 100 µM (inactive)

Provide GI50 value for the following compound: "COC(=O)c1c(C)cc(OC)c(C/C=C(\C)CCCc2coc(C=C(C)C)c2)c1OC"
> 100 µM (inactive)

Please give measured GI50 of the following entry: "CC(=C(C(=O)O)C(=O)O)c1cc(-c2cccs2)cc(-c2ccc(Cl)cc2)c1O"
15.2 µM (inactive)

Tell me its GI50 given Cc1ccc(C2SCC(=O)N2NC(=O)c2ccncc2)s1 (stereo unspecified) as the entry.
> 100 µM (inactive)

Consider the compound "CCOC(=O)c1ccc(NC(=O)O/N=C(/Cl)CCl)cc1" and give its recorded GI50.
> 100 µM (inactive)

For the compound "COc1cc(C(=O)O)c([N+](=O)[O-])c(OC)c1OC" , give its reported GI50.
> 100 µM (inactive)

Return value of GI50 for input "COc1ccc(Cc2nccc3cc(OC)c(OC)cc23)cc1" , no commentary.
95.1 µM (inactive)

Provide measured GI50 value, entry: "Cc1ccc(S(=O)(=O)n2ccc(-c3ccc4ccn(S(=O)(=O)c5ccc(C)cc5)c4c3)c2)cc1"
> 100 µM (inactive)

Name the recorded GI50 of the item CCOC(=O)C1=c2[nH]c3cccc4cccc(c43)n2C=C(C(C)=O)C1CC(C)=O (stereo unspecified) in your answer.
> 100 µM (inactive)

Item CC1C(=O)N(c2ccccc2)NC12CCCc1ccccc12 (stereo unspecified) : provide GI50
> 100 µM (inactive)

Quote GI50 reported for "O=C(/C=C1\Nc2ccccc2N\C1=C\C(=O)c1ccc(Cl)cc1)c1ccccc1" please.
> 100 µM (inactive)

Recall and state the measured GI50 for "Oc1c(Br)cc(/C=C/c2ccnc(/C=C/c3cc(Br)c(O)c(Br)c3)c2)cc1Br" .
32.4 µM (inactive)

Provide one value: measured GI50 of "O=C(O)c1ccc(NCc2nc3cc4ccccc4cc3[nH]2)cc1"
> 100 µM (inactive)

Please give the documented GI50 of OC1[C@@H]2[C@@H](O)[C@H](O)[C@@H](O)N2C[C@@H]1O (stereo partly specified)
> 100 µM (inactive)

Output GI50 of COC1(OC)C2(Cl)CCC1(Cl)C(OC(C)=O)C2 (stereo unspecified)
> 100 µM (inactive)

Please report the measured GI50 for CCC(C)C(NC(=O)C1CCCN1)C(=O)NC(C(=O)NCC(=O)NC(CC(N)=O)C(=O)NC(CC(C)C)C(=O)NC(CC(C)C)C(=O)NC(CCCCN)C(N)=O)C(C)C (stereo unspecified) (H-PIVGNLLK-NH2; configuration not given here)
> 75 µM (inactive)

Give the value of GI50 reported for the following: "C/C(=C1\N=C(c2ccccc2)OC1=O)c1ccccc1"
> 100 µM (inactive)

Recall and state the measured GI50 for "Cc1cnc(-c2c[nH]c3ccccc23)nc1-c1c[nH]c2ccccc12" .
1.14 µM (inactive)

Supply recorded GI50 for "CN(/N=C/c1ccc(C(=O)O)cc1)C1=NCCCCN1" here.
> 100 µM (inactive)

Input C=CCC1=C2CCCCC2CCC1=O (stereo unspecified) , output reported GI50.
> 100 µM (inactive)
